# System: KCl-induced contraction of helical blood vessel specimen (artery)
# assayText: Test on calcium antagonizing activity (KCl-induced contraction of helical blood vessel specimen)
# Parameters: species or system rabbit
# experimentalConditions: contraction height at 40 mM KCl taken as 100%; 10 minutes after test compound; 37° C.; read-out: ED50 (concentration which inhibits the contraction height of the control to an extent of 50%)

{"compound": "CCOC(=O)C1=C(C)Nc2snc(CCN3CCN(c4ccc(F)cc4)CC3)c2C1c1cccc([N+](=O)[O-])c1 (stereo not shown) [If]", "IC50": "0.0638 µM"}

* * *

# System: systolic blood pressure, spontaneously hypertensive rats
# assayText: Antihypertensive activity test
# Format: in vivo, rat (male spontaneously hypertensive)
# experimentalConditions: 1 mg/kg, oral
// values below are reported Systolic blood pressure (maximum variation)
parameter: Systolic blood pressure (maximum variation) (mmHg)

{"molecule": "CCOC(=O)C1=C(C)Nc2snc(CCN3CCN(c4ccccc4)CC3)c2C1c1cccc([N+](=O)[O-])c1 (single isomer, unassigned; (-)) [Ih]", "assayedSystem": "systolic blood pressure, spontaneously hypertensive rats", "valueReported": -36}
{"molecule": "CCOC(=O)C1=C(C)Nc2snc(CN(C)CCc3ccc(OC)c(OC)c3)c2C1c1cccc([N+](=O)[O-])c1 (stereo not drawn) [Ia]", "assayedSystem": "systolic blood pressure, spontaneously hypertensive rats", "valueReported": -6}
{"molecule": "CC1=C(C(=O)OCCN(C)Cc2ccccc2)C(c2cccc([N+](=O)[O-])c2)c2c(CN3CCN(c4ccc(F)cc4)CC3)nsc2N1 (stereo not drawn) [Id]", "assayedSystem": "systolic blood pressure, spontaneously hypertensive rats", "valueReported": -30}
{"molecule": "CCOC(=O)C1=C(C)Nc2snc(CCN3CCN(c4ccccc4)CC3)c2C1c1cccc([N+](=O)[O-])c1 (stereo not drawn) [Ie]", "assayedSystem": "systolic blood pressure, spontaneously hypertensive rats", "valueReported": -41}
{"molecule": "COC(=O)C1=C(C)NC(C)=C(C(=O)OC)C1c1ccccc1[N+](=O)[O-] [Nifedipine, reference compound]", "assayedSystem": "systolic blood pressure, spontaneously hypertensive rats", "valueReported": -29}
{"molecule": "CCOC(=O)C1=C(C)Nc2snc(CCN3CCN(c4ccc(F)cc4)CC3)c2C1c1cccc([N+](=O)[O-])c1 (stereo not drawn) [If]", "assayedSystem": "systolic blood pressure, spontaneously hypertensive rats", "valueReported": -47}

* * *

# Tested on: KCl-induced contraction of helical blood vessel specimen (artery)
# assayText: Test on calcium antagonizing activity (KCl-induced contraction of helical blood vessel specimen)
# Set-up: species or system rabbit
# experimentalConditions: Oryctolagus cuniculus, 10 min, contraction height at 40 mM KCl taken as 100%; 10 minutes after test compound; 37° C.; read-out: ED50 (concentration which inhibits the contraction height of the control to an extent of 50%)
parameter: IC50 (nM)

{"compound": "CCOC(=O)C1=C(C)Nc2snc(CN(C)CCc3ccc(OC)c(OC)c3)c2C1c1cccc([N+](=O)[O-])c1 (stereo not drawn)", "parameter": "IC50", "qualifierSymbol": "=", "valueReported": 60}
{"compound": "COc1ccc(CCN(C)Cc2nsc3c2C(c2cccc([N+](=O)[O-])c2)C(C(=O)OCCN(C)Cc2ccccc2)=C(C)N3)cc1OC (stereo not drawn)", "parameter": "IC50", "qualifierSymbol": "=", "valueReported": 225}
{"compound": "COC(=O)C1=C(C)NC(C)=C(C(=O)OC)C1c1ccccc1[N+](=O)[O-] [Nifedipine, reference compound]", "parameter": "IC50", "qualifierSymbol": "=", "valueReported": 19.6}
{"compound": "CCOC(=O)C1=C(C)Nc2snc(CN(C)CCCOc3cccc(OC)c3)c2C1c1cccc([N+](=O)[O-])c1 (stereo not drawn)", "parameter": "IC50", "qualifierSymbol": "=", "valueReported": 62}
{"compound": "CC1=C(C(=O)OCCN(C)Cc2ccccc2)C(c2cccc([N+](=O)[O-])c2)c2c(CN3CCN(c4ccc(F)cc4)CC3)nsc2N1 (stereo not drawn)", "parameter": "IC50", "qualifierSymbol": ">", "valueReported": 300}
{"compound": "CCOC(=O)C1=C(C)Nc2snc(CCN3CCN(c4ccccc4)CC3)c2C1c1cccc([N+](=O)[O-])c1 (stereo not drawn)", "parameter": "IC50", "qualifierSymbol": "=", "valueReported": 33}
